biological target: A. sobria ProAP (Aeromonas sobria, UniProt P46547); test: ProAP activity assay (kinetic constants of A. sobria ProAP against selected peptide substrates); type: biochemical; conditions: role: substrate; PBS pH 7.4, 2 mM DTT; 0-500 μM peptide; 0.5-25 nM ProAP; mean ± SD of three independent sets of experiments
Sequence (P46547 whole entry, added parts left off): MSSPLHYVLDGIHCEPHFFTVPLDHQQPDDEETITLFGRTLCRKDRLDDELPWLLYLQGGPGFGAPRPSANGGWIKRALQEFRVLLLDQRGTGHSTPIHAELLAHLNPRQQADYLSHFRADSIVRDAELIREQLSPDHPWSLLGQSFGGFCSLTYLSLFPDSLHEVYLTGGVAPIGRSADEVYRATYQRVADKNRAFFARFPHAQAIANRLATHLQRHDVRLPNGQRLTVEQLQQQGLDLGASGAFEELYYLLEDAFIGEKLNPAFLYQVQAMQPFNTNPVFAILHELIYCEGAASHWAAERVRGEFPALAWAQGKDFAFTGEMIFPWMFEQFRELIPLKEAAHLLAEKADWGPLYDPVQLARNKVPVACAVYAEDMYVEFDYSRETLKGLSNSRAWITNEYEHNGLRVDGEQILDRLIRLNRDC
No end group written: not given here.
Quantity kind: kcat/KM

Input: Report kcat/KM, nothing else, for this substance: PCHDETY-NH2 [Peptide 11, PCHDETY]
Output: 0.038 ± 0.010 ×10^5 M^−1 s^−1

Input: Answer with the recorded kcat/KM of PCSHKGY-NH2 [Peptide 4, PCSHKGY] only.
Output: 3.2 ± 0.1 ×10^5 M^−1 s^−1

Input: Return value of kcat/KM for input PCGHKAY-NH2 [Peptide 9, PCGHKAY] , no commentary.
Output: 7.2 ± 2.6 ×10^5 M^−1 s^−1

Input: Report kcat/KM, nothing else, for this substance: PCGHKKY-NH2 [Peptide 7, PCGHKKY]
Output: 8.2 ± 0.7 ×10^5 M^−1 s^−1

Input: Provide kcat/KM value for the following substance: PCAHKPY-NH2 [Peptide 10, PCAHKPY]
Output: 2.8 ± 0.8 ×10^5 M^−1 s^−1

Input: Tell us which kcat/KM value is on record for PCGGKAY-NH2 [Peptide 1, PCGGKAY]
Output: 7.0 ± 1.2 ×10^5 M^−1 s^−1

Input: Retrieve kcat/KM measured for PCGHKPY-NH2 [Peptide 8, PCGHKPY] and print it.
Output: 8.3 ± 3.2 ×10^5 M^−1 s^−1

Input: Give kcat/KM for PCGSSKY-NH2 [Peptide 2, PCGSSKY]
Output: 5.8 ± 1.0 ×10^5 M^−1 s^−1

Input: For PCASKAY-NH2 [Peptide 3, PCASKAY] , write its kcat/KM.
Output: 3.8 ± 0.4 ×10^5 M^−1 s^−1

Input: Tell us which kcat/KM value is on record for PCEFTRY-NH2 [Peptide 5, PCEFTRY]
Output: 3.2 ± 0.9 ×10^5 M^−1 s^−1
